# measurement.protocol: Phase I clinical trial: plasma pharmacokinetics
# Type: in vivo, human
# condition.details: human, plasma, oral; 40 mg QW
quantity.measured: AUC
State the value with its unit after it.

[in] Please report the recorded AUC for CC(C)n1nc(-c2ccc3oc(N)nc3c2)c2c(N)ncnc21 [compound A] .
[out] 6.5 µM·h

* * *

Task for the reader: assign each of the following compounds its reported pIC50.
# tested.system: mTOR (Homo sapiens)
# Construct: purchased Invitrogen
# measurement.protocol: mTOR kinase inhibition assay
# Format: biochemical
# condition.details: Table 2; read-out: mTORC IC50
pIC50: −log10 of the molar value.

[in] Please report the recorded pIC50 for CC(C)n1nc(-c2cc3cc(O)ccc3[nH]2)c2c(N)nccc21 .
[out] < 6.30

[in] Now try CC(C)N1CCC(n2nc(-c3cc4c(Cl)ccc(O)c4[nH]3)c3c(N)ncnc32)CC1 .
[out] 7.00 to 7.30

[in] Now try CC(C)n1nc(-c2cc3cc(F)ccc3[nH]2)c2c(NC(=O)N(C)C)ncnc21 .
[out] < 6.30

[in] Now try CC(C)n1nc(-c2cc3cccc(Cl)c3[nH]2)c2c(N)ncnc21 .
[out] 7.30 to 7.60

[in] Now try COc1cccc2cc(-c3nn(C(C)C)c4ncnc(N)c34)[nH]c12 .
[out] 7.60 to 8.00

[in] Now try Nc1ncnc2c1c(-c1cc3cc(O)ccc3[nH]1)nn2CCN1CCOCC1 .
[out] 6.30 to 7.00

[in] Now try CC(C)n1nc(-c2cc3ccccc3[nH]2)c2c(N)ncnc21 .
[out] 7.00 to 7.30

[in] Now try Nc1ncnc2c1c(-c1cc3cc(O)ccc3[nH]1)nn2C1CCCC1 .
[out] 8.00 to 8.30

[in] Now try CN1CCN(C2CCC(n3nc(-c4cc5cc(O)ccc5[nH]4)c4c(N)ncnc43)CC2)CC1 (stereo not drawn) .
[out] < 6.30

[in] Now try CC(C)n1nc(-c2cc3cccc(O)c3[nH]2)c2c(N)ncnc21 .
[out] > 8.30

[in] Now try COc1cc(Cl)c2[nH]c(-c3nn(C4CCOCC4)c4ncnc(N)c34)cc2c1 .
[out] < 6.30

[in] Now try Nc1ncnc2c1c(-c1cc3cc(O)ccc3[nH]1)nn2C1CC(=O)C1 .
[out] 7.00 to 7.30
